Would you kindly list Activity for each of these compounds?
- System: Streptococcus viridans
- Method Summary: Antibacterial activity against penicillin-nonsusceptible Streptococcus viridans assessed as susceptible isolates by CLSI M7-A7 broth microdilution method
- Format: functional
Give just the number in %; leave the unit off.

If you can, please state the reported Activity value of "CO/N=C(\C(=O)N[C@@H]1C(=O)N2C(C(=O)O)=C(CSc3nc(=O)c(O)nn3C)CS[C@H]12)c1csc(N)n1" .
28.6

Input "CC(=O)NC[C@H]1CN(c2ccc(N3CCOCC3)c(F)c2)C(=O)O1"
100

Input "C[C@H]1COc2c(N3CCN(C)CC3)c(F)cc3c(=O)c(C(=O)O)cn1c23.C[C@H]1COc2c(N3CCN(C)CC3)c(F)cc3c(=O)c(C(=O)O)cn1c23.O"
92.9
